Assay: physchem
Measured pKa, listed per entry.
Give the value as a plain number.

Examples from the recorded data:
Form: compound = NS(=O)(=O)c1cc(C(=O)Cn2cnc3ccccc32)ccc1Cl ; pKa = 8.8

Please fill in: pKa reported for NS(=O)(=O)c1cc(C(=O)Cn2ccnc2)ccc1Cl = 8.8

For reference, reported pKa for NS(=O)(=O)c1cc(C(=O)Cn2cnc3ccccc32)c(SCCc2ccccc2)cc1Cl stands at 8.8

New cases:
Notebook: CCc1nccn1CC(=O)c1ccc(Cl)c(S(N)(=O)=O)c1 , pKa read as 8.8

Reported pKa for CC1Cc2ccccc2N1NC(=O)c1ccc(Cl)c(S(N)(=O)=O)c1 (centres undefined) [INDAPAMIDE] was 8.8

pKa reported for this compound NS(=O)(=O)c1cc(C(=O)Cn2cnc(-c3ccccc3)c2-c2ccccc2)ccc1Cl : 8.8

NS(=O)(=O)c1cc(C(=O)Nn2cnc3ccccc32)c(SC2CCCCC2)cc1Cl yielded pKa of 8.8

The origin of these recorded values is ChEMBL document CHEMBL4184200.
